Tested on: ATP;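 also: ATP exposure 15 min at 22 °C before imaging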
Experiment: switch fluorescence ratio, 500 uM ATP over buffer (Cy3 cluster intensity, sum of 5 cycles each) (fold (ratio)); higher = stronger signal-on switching upon ATP binding; sequences stand for … in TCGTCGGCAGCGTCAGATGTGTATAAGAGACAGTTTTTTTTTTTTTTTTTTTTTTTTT…TC
Conditions: aptamer strand: ATP DNA aptamer (quencher-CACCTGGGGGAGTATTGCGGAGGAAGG + anchor), 100 nM annealed; ATP concentration: 500 uM
Rule: switch fluorescence ratio of 1 or more gives 1.0; anything lower gives 0.0.

ATTAAAAAAA: 1.0
AGGAAAAAAA: 1.0

Query :: Form field: switch fluorescence ratio at least 1? Entry: "TTTTCATTAC"
Result :: 1.0

Query :: "AGACAGTAGG" , same question.
Result :: 1.0

Query :: "TTAAACCGGT" , same question.
Result :: 1.0

Query :: "TTGGCAACTT" , same question.
Result :: 1.0

Query :: "GATAGGAGGG" , same question.
Result :: 0.0

Query :: "TTTACGGCTT" , same question.
Result :: 1.0

Query :: "AAGTAGTCCC" , same question.
Result :: 1.0

Query :: "AAACGCAACC" , same question.
Result :: 1.0

Query :: "TCTTTATCCC" , same question.
Result :: 1.0

Query :: "ATTAACGAGG" , same question.
Result :: 1.0

Query :: "GGAGCTTTCA" , same question.
Result :: 1.0

Query :: "GGGTGGCTGG" , same question.
Result :: 0.0

Query :: "ATGGTGGATT" , same question.
Result :: 0.0

Query :: "CTCGAAAAAA" , same question.
Result :: 1.0

Query :: "GGGCTGACAG" , same question.
Result :: 1.0

Query :: "CTCAGAATAT" , same question.
Result :: 1.0

Query :: "TCCAGGGGCA" , same question.
Result :: 1.0
